Method Summary: qHTS assay for small molecule antagonists of retinoid X receptor alpha signaling (AID 588546);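 further: cells stimulated with 9-cis-retinoic acid as agonist; on the % scale 0 is the no-effect control and ±100 the full control effect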
Assay Conditions: HEK293T RXRa-UAS-bla, beta-lactamase ratio, antagonist mode; measured here: W530 green channel, cytotoxicity proxy
Records with an inconclusive call do not appear.
max response for assorted molecules

Molecule | max response / %
COC(=O)c1ccc(O)cc1 | -19.3
Nc1ccc(S(=O)(=O)c2ccc(N)cc2)cc1 | -11.9
CC1CC(OC(=O)c2ccccc2O)CC(C)(C)C1 (stereo not drawn) | -9.52
FC(F)(F)C(Cl)Br (stereo not drawn) | -1.63
Cc1cc(=O)[nH]c(=S)[nH]1 | -3.7
CC(C)=CCC/C(C)=C/CO | -9.74
CCCCOC(=O)c1ccc(N)cc1 | -1.8
O=C1C(c2[nH]c3ccccc3c2O)=Nc2ccccc21 | 0.17
CC(=O)NS(=O)(=O)c1ccc(N)cc1 | -14.4
O=C(O)CCCCC1CCSS1 (stereo not drawn) | -14.4
CCCCCCCCCCCCCCCCCCO | 4.76
O=C(OOC(=O)c1ccccc1)c1ccccc1 | -16.7
CC(=O)Nc1cccc(O)c1 | -5.06
CC(=O)Nc1ccccc1 | -2.29
COc1ccc(O)cc1 | -9.24
CC[N+](CC)(CC(=O)Nc1c(C)cccc1C)Cc1ccccc1 | -13
OC[C@@H](O)[C@@H](O)[C@H](O)[C@H](O)CO | -16.3
CCCCCC(N)=O | -2.91
